target: T1, recombinant hSIRPa (Sino Biologicals, reference 11612-H08H) (human, UniProt P78324 31-370); assay: ELISA on immobilized hSIRPa-His, anti-human IgG detection, first experiment; first experiment
T1 construct: also called SIRPa-His; human SIRPa-His; not shown: His tag (histidine tail)
T1 sequence (P78324 31-370 limits assumed): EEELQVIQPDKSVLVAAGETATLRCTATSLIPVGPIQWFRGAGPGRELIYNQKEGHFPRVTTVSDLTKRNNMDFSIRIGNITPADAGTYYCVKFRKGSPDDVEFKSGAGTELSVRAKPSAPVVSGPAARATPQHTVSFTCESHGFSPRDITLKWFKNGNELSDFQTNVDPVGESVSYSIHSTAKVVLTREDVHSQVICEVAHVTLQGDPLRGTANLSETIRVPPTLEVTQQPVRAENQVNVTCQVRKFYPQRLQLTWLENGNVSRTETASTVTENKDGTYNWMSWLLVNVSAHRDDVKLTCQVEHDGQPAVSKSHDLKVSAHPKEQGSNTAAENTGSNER
Outcome measure: EC50 (ng/mL)
A number alone suffices; assume ng/mL.

For orientation, consider the following solved cases.
- Binder: "HEFLA (antibody, human IgG4 S228P, kappa, V domains shown, humanized 18D5 variant) VH: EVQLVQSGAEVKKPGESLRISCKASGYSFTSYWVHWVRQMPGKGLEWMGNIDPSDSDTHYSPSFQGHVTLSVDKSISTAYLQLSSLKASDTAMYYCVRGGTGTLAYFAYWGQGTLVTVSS VL: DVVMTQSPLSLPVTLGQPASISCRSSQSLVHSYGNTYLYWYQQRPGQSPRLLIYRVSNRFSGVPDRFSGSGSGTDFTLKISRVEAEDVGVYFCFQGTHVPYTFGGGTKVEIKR"
  EC50, ng/mL: 7.1
- Binder: "HFLA (antibody, human IgG4 S228P, kappa, V domains shown, humanized 18D5 variant) VH: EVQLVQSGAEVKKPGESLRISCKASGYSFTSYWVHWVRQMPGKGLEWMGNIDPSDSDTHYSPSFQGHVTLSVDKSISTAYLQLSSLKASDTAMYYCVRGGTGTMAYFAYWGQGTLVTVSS VL: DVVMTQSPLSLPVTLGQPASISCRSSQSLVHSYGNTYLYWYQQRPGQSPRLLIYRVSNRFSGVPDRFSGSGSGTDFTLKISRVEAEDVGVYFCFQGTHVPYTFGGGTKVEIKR"
  EC50, ng/mL: 5.1
- Binder: "HFLB (antibody, human IgG4 S228P, kappa, V domains shown, humanized 18D5 variant) VH: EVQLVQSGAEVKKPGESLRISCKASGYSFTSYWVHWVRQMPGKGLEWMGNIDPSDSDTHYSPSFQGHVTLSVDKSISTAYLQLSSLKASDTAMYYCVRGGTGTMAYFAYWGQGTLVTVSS VL: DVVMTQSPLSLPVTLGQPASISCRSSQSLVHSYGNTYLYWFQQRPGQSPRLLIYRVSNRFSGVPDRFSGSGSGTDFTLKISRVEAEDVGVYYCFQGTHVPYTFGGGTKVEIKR"
  EC50, ng/mL: 4

Okay, now this binder:
INPUT: Which value of EC50 has been reported for HALA (antibody, human IgG4 S228P, kappa, V domains shown, humanized 18D5 variant; also called humanized 18D5 variant HALA) VH: EVQLVQSGAEVKKPGESLRISCKASGYTFTSYWVHWVRQMPGKGLEWIGNIDPSDSDTHYNQKFKDHVTLSVDKSISTAYLQLSSLKASDTAMYYCVRGGTGTMAWFAYWGQGTLVTVSS VL: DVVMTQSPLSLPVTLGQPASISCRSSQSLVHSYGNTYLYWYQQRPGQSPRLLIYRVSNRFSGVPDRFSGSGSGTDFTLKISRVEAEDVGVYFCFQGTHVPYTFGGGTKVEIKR in the records?
OUTPUT: 3.9
